Test system: OVCAR-8
Assay: NCI tumour cell line growth inhibition, 48 h
Active and inactive are the calls of the source. Rule as the data show it: active = GI50 up to about 1.1 µM and inactive = higher.
Reported GI50 values follow for various molecules

{"molecule": "Cc1ccc2c(c1)NC(=O)C(N=[N+]=[N-])(c1ccccc1)C2=O (stereo not given)", "GI50": "27.2 µM (inactive)"}
{"molecule": "CCN(CC)Cc1cc(Nc2c3ccccc3nc3c4ccccc4n(C)c23)ccc1O", "GI50": "9.25 µM (inactive)"}
{"molecule": "O[C@H]1[C@H]2[C@H](O)C[C@H](CCOCc3ccccc3)CN2C[C@H]1O", "GI50": "> 100 µM (inactive)"}
{"molecule": "C=CC[C@@H]1C=C[C@@H](C(=O)OC)n2c(=O)n(-c3ccccc3)c(=O)n21", "GI50": "> 100 µM (inactive)"}

Prompt: Provide one value: measured GI50 of CC[P+](c1ccccc1)(N(C)C)N(C)C
Completion: > 100 µM (inactive)

----------
Test system: HL-60
Assay: NCI tumour cell line growth inhibition, 48 h
The source made the active and inactive calls. No stated cut-off is given here; in the data, active = GI50 up to about 1.1 µM and inactive = higher.
value_kind: GI50

{"molecule": "CC(C)(C)c1cc(OCc2nnc3sc(Cc4ccccc4)nn23)c(Cl)cc1OCc1nnc2sc(Cc3ccccc3)nn12", "GI50": "23.8 µM (inactive)"}
{"molecule": "CCCCCC[C@H]([C@H](C)O)n1cnc2c(N)ncnc21", "GI50": "50.9 µM (inactive)"}
{"molecule": "CC(C)C1(NC(=O)C2CC3c4cccc5[nH]cc(c45)CC3N(C)C2)OC2(O)C3CCCN3C(=O)C(Cc3ccccc3)N2C1=O (stereo unspecified)", "GI50": "6.62 µM (inactive)"}
{"molecule": "CCC(=O)Nc1ccc(/N=N/N(C)C)cc1", "GI50": "42.8 µM (inactive)"}
{"molecule": "COc1ccc(N(C)CN(C)c2nc(N(C)C)nc(N(C)C)n2)cc1", "GI50": "> 100 µM (inactive)"}

Prompt: Provide one value: measured GI50 of N=C1c2ccccc2C(=O)c2c(NCCNCCO)ccc(O)c21
Completion: 6.85 µM (inactive)

----------
Test system: EKVX
Test: NCI tumour cell line growth inhibition, 48 h
The source made the active and inactive calls. No stated cut-off is given here; in the data, active = GI50 up to about 1.1 µM and inactive = higher.
Reported GI50 values follow for various compounds

{"compound": "CC1(C)SCc2nc3ncccc3n21", "value_kind": "GI50", "measurement": "> 100 µM (inactive)"}
{"compound": "Cc1ccc2c(c1)NC(=O)C(N=[N+]=[N-])(c1ccccc1)C2=O (configuration not stated)", "value_kind": "GI50", "measurement": "30.3 µM (inactive)"}
{"compound": "CC(C)CCC[C@@H](C)C1CCC2[C@@H]3CC=C4C[C@@H](OC(=O)CCC(=O)NCC[N+](C)(C)CCCS(=O)(=O)[O-])CC[C@]4(C)C3CC[C@@]21C (some centres not stated)", "value_kind": "GI50", "measurement": "29.2 µM (inactive)"}
{"compound": "Cc1cc(=O)n2c3c(c4c(cc13)c(CN(C)C)cc(=O)n4C)OC2", "value_kind": "GI50", "measurement": "20.6 µM (inactive)"}
{"compound": "Cn1c2ccccc2c2ccc3c(c21)C(=O)c1ccccc1C3=O", "value_kind": "GI50", "measurement": "12.5 µM (inactive)"}

Prompt: Provide GI50, system EKVX, entry Cc1ccc(-c2nc3cc([N+](=O)[O-])ccc3[nH]2)cc1
Completion: 51.6 µM (inactive)

Prompt: Provide GI50, system EKVX, entry COc1ccc(C2=NNC(=O)c3ccccc3N2c2nc(-c3cccs3)nc3ccc(Br)cc23)cc1
Completion: 24.6 µM (inactive)
